B1: library; a variant is named by its letters at N, in order (parent)
chain: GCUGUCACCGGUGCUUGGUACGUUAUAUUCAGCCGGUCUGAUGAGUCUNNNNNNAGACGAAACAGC

Variants of: B1
Experiment: normalized RNA/DNA level with ligand (relative to sTRSVctl = 100) (log10 (% of sTRSVctl)); HEK293T overexpressing SLC46A1; ligand concentration (+) RNA-Seq: 6 mM; higher = less ribozyme self-cleavage, higher mRNA level
Settings: with (6R,S)-folinic acid; ligand present: yes
Field: normalized RNA/DNA level with ligand (log10). Provide a value for each of the variants that follow.

Input GCUGUCACCGGUGCUUGGUACGUUAUAUUCAGCCGGUCUGAUGAGUCUACCUGCAGACGAAACAGC . Output normalized RNA/DNA level with ligand (log10): 2.04

Lab note: measured normalized RNA/DNA level with ligand (log10) of GCUGUCACCGGUGCUUGGUACGUUAUAUUCAGCCGGUCUGAUGAGUCUCCAAACAGACGAAACAGC was 2.03

Documented normalized RNA/DNA level with ligand (log10) of GCUGUCACCGGUGCUUGGUACGUUAUAUUCAGCCGGUCUGAUGAGUCUGUAGUGAGACGAAACAGC : 1.99

Reported normalized RNA/DNA level with ligand (log10) ( GCUGUCACCGGUGCUUGGUACGUUAUAUUCAGCCGGUCUGAUGAGUCUUGUUGGAGACGAAACAGC ) = 1.88

The variant listed as GCUGUCACCGGUGCUUGGUACGUUAUAUUCAGCCGGUCUGAUGAGUCUCAGGUCAGACGAAACAGC has a reported normalized RNA/DNA level with ligand (log10) of 2.04

Noted for GCUGUCACCGGUGCUUGGUACGUUAUAUUCAGCCGGUCUGAUGAGUCUUCAUCUAGACGAAACAGC : its normalized RNA/DNA level with ligand (log10) reads 2.05

Per the record, GCUGUCACCGGUGCUUGGUACGUUAUAUUCAGCCGGUCUGAUGAGUCUGCGUUUAGACGAAACAGC has normalized RNA/DNA level with ligand (log10) of 2.04

Form field normalized RNA/DNA level with ligand (log10), entry GCUGUCACCGGUGCUUGGUACGUUAUAUUCAGCCGGUCUGAUGAGUCUAUGCCAAGACGAAACAGC : 2.01

Measured normalized RNA/DNA level with ligand (log10), GCUGUCACCGGUGCUUGGUACGUUAUAUUCAGCCGGUCUGAUGAGUCUGUAAAAAGACGAAACAGC : 1.96

Note to self: normalized RNA/DNA level with ligand (log10) recorded for GCUGUCACCGGUGCUUGGUACGUUAUAUUCAGCCGGUCUGAUGAGUCUUGUCGAAGACGAAACAGC was 1.99

Value of measured normalized RNA/DNA level with ligand (log10) for the entry GCUGUCACCGGUGCUUGGUACGUUAUAUUCAGCCGGUCUGAUGAGUCUACUUAGAGACGAAACAGC : 1.98

The variant listed as GCUGUCACCGGUGCUUGGUACGUUAUAUUCAGCCGGUCUGAUGAGUCUUACAUCAGACGAAACAGC has a reported normalized RNA/DNA level with ligand (log10) of 2.04

# variant GCUGUCACCGGUGCUUGGUACGUUAUAUUCAGCCGGUCUGAUGAGUCUACAUCUAGACGAAACAGC ; its normalized RNA/DNA level with ligand (log10) = 2.03

// GCUGUCACCGGUGCUUGGUACGUUAUAUUCAGCCGGUCUGAUGAGUCUCGUAUUAGACGAAACAGC : normalized RNA/DNA level with ligand (log10) value = 2.03

Entry under test: GCUGUCACCGGUGCUUGGUACGUUAUAUUCAGCCGGUCUGAUGAGUCUGGGCCAAGACGAAACAGC . Its normalized RNA/DNA level with ligand (log10) was 2.09

Entry GCUGUCACCGGUGCUUGGUACGUUAUAUUCAGCCGGUCUGAUGAGUCUUUCCCGAGACGAAACAGC ; normalized RNA/DNA level with ligand (log10) = 2

Lab note: GCUGUCACCGGUGCUUGGUACGUUAUAUUCAGCCGGUCUGAUGAGUCUAGAGCAAGACGAAACAGC gave normalized RNA/DNA level with ligand (log10) of 2.01

Value of normalized RNA/DNA level with ligand (log10) reported for the variant GCUGUCACCGGUGCUUGGUACGUUAUAUUCAGCCGGUCUGAUGAGUCUAGUGCAAGACGAAACAGC is 2

Memo: GCUGUCACCGGUGCUUGGUACGUUAUAUUCAGCCGGUCUGAUGAGUCUCAUAUCAGACGAAACAGC , reported normalized RNA/DNA level with ligand (log10): 2.03

Reported normalized RNA/DNA level with ligand (log10) ( GCUGUCACCGGUGCUUGGUACGUUAUAUUCAGCCGGUCUGAUGAGUCUAUAAUAAGACGAAACAGC ) = 1.99

Per the records, this variant ( GCUGUCACCGGUGCUUGGUACGUUAUAUUCAGCCGGUCUGAUGAGUCUCAACUAAGACGAAACAGC ) has normalized RNA/DNA level with ligand (log10) equal to 2.01

The measured normalized RNA/DNA level with ligand (log10) associated with GCUGUCACCGGUGCUUGGUACGUUAUAUUCAGCCGGUCUGAUGAGUCUUCUCUCAGACGAAACAGC reads 2.04

The recorded normalized RNA/DNA level with ligand (log10) for entry GCUGUCACCGGUGCUUGGUACGUUAUAUUCAGCCGGUCUGAUGAGUCUUGAGUCAGACGAAACAGC equals 2

The recorded normalized RNA/DNA level with ligand (log10) for GCUGUCACCGGUGCUUGGUACGUUAUAUUCAGCCGGUCUGAUGAGUCUGUCUGGAGACGAAACAGC is 2.07

Lab book: normalized RNA/DNA level with ligand (log10) of GCUGUCACCGGUGCUUGGUACGUUAUAUUCAGCCGGUCUGAUGAGUCUGCGCGCAGACGAAACAGC noted as 2

response.value for GCUGUCACCGGUGCUUGGUACGUUAUAUUCAGCCGGUCUGAUGAGUCUUAACGCAGACGAAACAGC (field: normalized RNA/DNA level with ligand (log10)) = 2.02

Consider GCUGUCACCGGUGCUUGGUACGUUAUAUUCAGCCGGUCUGAUGAGUCUGCAAAUAGACGAAACAGC . Its measured normalized RNA/DNA level with ligand (log10) is 2.03

Query GCUGUCACCGGUGCUUGGUACGUUAUAUUCAGCCGGUCUGAUGAGUCUUCUAGCAGACGAAACAGC yields normalized RNA/DNA level with ligand (log10) of 2.02

Given item GCUGUCACCGGUGCUUGGUACGUUAUAUUCAGCCGGUCUGAUGAGUCUGCGCACAGACGAAACAGC , the value recorded as its normalized RNA/DNA level with ligand (log10) is 2.01

GCUGUCACCGGUGCUUGGUACGUUAUAUUCAGCCGGUCUGAUGAGUCUCGAAUGAGACGAAACAGC yielded normalized RNA/DNA level with ligand (log10) of 2.03

get_value(item= GCUGUCACCGGUGCUUGGUACGUUAUAUUCAGCCGGUCUGAUGAGUCUAGGUACAGACGAAACAGC , readout=normalized RNA/DNA level with ligand (log10)) returns 2

Recorded result, GCUGUCACCGGUGCUUGGUACGUUAUAUUCAGCCGGUCUGAUGAGUCUGUUUAAAGACGAAACAGC , normalized RNA/DNA level with ligand (log10): 1.99

Sure, the documented normalized RNA/DNA level with ligand (log10) for GCUGUCACCGGUGCUUGGUACGUUAUAUUCAGCCGGUCUGAUGAGUCUCUACGUAGACGAAACAGC is 1.99

Entry GCUGUCACCGGUGCUUGGUACGUUAUAUUCAGCCGGUCUGAUGAGUCUGGCUUUAGACGAAACAGC ; normalized RNA/DNA level with ligand (log10) = 2.04

The variant GCUGUCACCGGUGCUUGGUACGUUAUAUUCAGCCGGUCUGAUGAGUCUACUGGCAGACGAAACAGC showed normalized RNA/DNA level with ligand (log10) equal to 2

Sample GCUGUCACCGGUGCUUGGUACGUUAUAUUCAGCCGGUCUGAUGAGUCUUCUUGAAGACGAAACAGC ; normalized RNA/DNA level with ligand (log10) observed: 2.02

Entry GCUGUCACCGGUGCUUGGUACGUUAUAUUCAGCCGGUCUGAUGAGUCUCACAUAAGACGAAACAGC , normalized RNA/DNA level with ligand (log10) reported as 2.02

So for GCUGUCACCGGUGCUUGGUACGUUAUAUUCAGCCGGUCUGAUGAGUCUUCUACGAGACGAAACAGC , the logged normalized RNA/DNA level with ligand (log10) turned out to be 2.01

For this variant ( GCUGUCACCGGUGCUUGGUACGUUAUAUUCAGCCGGUCUGAUGAGUCUGGCAGGAGACGAAACAGC ), measured normalized RNA/DNA level with ligand (log10) is 2.04

Record GCUGUCACCGGUGCUUGGUACGUUAUAUUCAGCCGGUCUGAUGAGUCUACACGCAGACGAAACAGC , field normalized RNA/DNA level with ligand (log10): 1.99

The measured normalized RNA/DNA level with ligand (log10) associated with GCUGUCACCGGUGCUUGGUACGUUAUAUUCAGCCGGUCUGAUGAGUCUGGUUUGAGACGAAACAGC reads 2.06

What the record says about GCUGUCACCGGUGCUUGGUACGUUAUAUUCAGCCGGUCUGAUGAGUCUGGAGCCAGACGAAACAGC : normalized RNA/DNA level with ligand (log10) is 2.03

Every entry's value here was drawn from the supplement of paper PMC6757056.
